molecular target: T1, human LIF protein (human, UniProt P15018 23-202); test: ELISA, antigen coated 0.5 ug/ml, 293S supernatant non-heated, antibody 1 ug/mL
T1 construct: Bought recombinant protein (Sino Biological / Yiqiao Shenzhou 14890-HNAH) in most assays; also called recombinant human LIF protein; rhLIF
T1 sequence (P15018 23-202 limits assumed): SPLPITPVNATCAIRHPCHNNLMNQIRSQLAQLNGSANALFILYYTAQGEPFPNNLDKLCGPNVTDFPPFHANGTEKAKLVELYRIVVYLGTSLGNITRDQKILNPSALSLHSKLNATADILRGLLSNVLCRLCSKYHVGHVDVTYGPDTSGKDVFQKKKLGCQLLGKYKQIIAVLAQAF
Experimental endpoint: ELISA signal

| Binder | Endpoint value |
| --- | --- |
| H2L3 (antibody, human IgG1, kappa, V domains shown, Humanized, human IgG1 / kappa) VH: EVMLVESGGGLVQPGGSLRLSCAASGFIFSSYAMSWVRQAPGTGLEWVATISSGGSNTYSPDTVKGRFTISRDNSKNTLYLQMNSLRAEDTAMYYCARYYGYYFDFWGQGTLLTVSS VL: DIHMTQSPSSLSASVGDRVTITCRASENIYSYLAWYQQKPGKSPQLLVYNAKTLAEGVPSRFSGSGSGTQFTLTISSLQPEDFATYYCQHHYVTPLTFGQGTKLEIKR | 12000 |

Data credit: patent US20210403582A1
